Tested on: MT-4 cells
MEASUREMENT_PROTOCOL: Cell toxicity in uninfected MT-4 cells (MTT method)
Assay type: cell-based
CONDITION_NOTES: Table 1
Some compounds, each annotated with its measured CC50.
QUANTITY: CC50 (µM)

>  <COMPOUND>
N#Cc1ccc(Nc2nccc(Oc3ccc4cc(C#N)ccc4c3)n2)cc1 [Compound 14]

>  <READOUT_UNIT>
µM

>  <VALUE>
67.8

$$$$
>  <COMPOUND>
Cc1cnc(Nc2ccc(C#N)cc2)nc1Oc1cccc2cccnc12 [Compound 5]

>  <READOUT_UNIT>
µM

>  <VALUE>
19.9

$$$$
>  <COMPOUND>
COc1nc(Nc2ccc(C#N)cc2)nc(Oc2cccc3cccnc23)c1C [Compound 8]

>  <READOUT_UNIT>
µM

>  <VALUE>
31.8

$$$$
>  <COMPOUND>
CNc1nc(Nc2ccc(C#N)cc2)nc(Oc2cccc3cccnc23)c1C [Compound 7]

>  <READOUT_UNIT>
µM

>  <VALUE>
36.5

$$$$
>  <COMPOUND>
CNc1nc(Nc2ccc(C#N)cc2)nc(Oc2ccc3ccccc3c2Br)c1C [Compound 17]

>  <READOUT_UNIT>
µM

>  <VALUE>
177

$$$$
